Assay read-out pIC50; system under study: UniProtKB P14780.
Sequence (P14780 whole entry): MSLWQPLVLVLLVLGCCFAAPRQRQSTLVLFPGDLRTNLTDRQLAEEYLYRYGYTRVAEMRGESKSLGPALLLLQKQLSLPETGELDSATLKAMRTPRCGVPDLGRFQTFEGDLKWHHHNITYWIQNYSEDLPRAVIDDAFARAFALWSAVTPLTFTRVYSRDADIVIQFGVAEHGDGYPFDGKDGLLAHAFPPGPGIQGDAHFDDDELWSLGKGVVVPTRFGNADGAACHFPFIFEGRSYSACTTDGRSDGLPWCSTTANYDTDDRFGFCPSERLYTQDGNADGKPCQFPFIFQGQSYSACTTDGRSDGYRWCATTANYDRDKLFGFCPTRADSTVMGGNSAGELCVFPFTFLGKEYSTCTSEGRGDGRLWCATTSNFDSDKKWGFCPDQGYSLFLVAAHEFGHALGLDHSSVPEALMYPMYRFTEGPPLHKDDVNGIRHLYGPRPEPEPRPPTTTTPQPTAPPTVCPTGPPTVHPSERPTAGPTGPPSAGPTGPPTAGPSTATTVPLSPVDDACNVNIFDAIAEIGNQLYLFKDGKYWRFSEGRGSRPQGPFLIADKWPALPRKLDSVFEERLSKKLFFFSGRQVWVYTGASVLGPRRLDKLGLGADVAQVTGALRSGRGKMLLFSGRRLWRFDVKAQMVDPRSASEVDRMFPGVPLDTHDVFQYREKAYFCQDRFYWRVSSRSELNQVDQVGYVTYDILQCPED
Scale explanation: pIC50 corresponds to minus log10 of a concentration expressed in moles per litre.

Query: # input compound: `C=C(F)C[C@@H](C(=O)NO)N(Cc1cccnc1)S(=O)(=O)c1ccc(OC)cc1` ; wanted: its pIC50
Response: 8.31

Query: # input compound: `C=CC[C@H](C(=O)O)N(Cc1cccnc1)S(=O)(=O)c1ccc(OC)cc1` ; wanted: its pIC50
Response: 5.77

Query: # input compound: `CC[C@H](C(=O)O)N(Cc1cccnc1)S(=O)(=O)c1ccc(OC)cc1` ; wanted: its pIC50
Response: 5.06
